Listing of entries alongside the reported IC50.
system: human PKK mRNA; assay: Dose-dependent antisense inhibition of human PKK in HepaRG cells, 0.19-5.00 uM (Example 5); assay type: cell-based; conditions: Table 34; PKK mRNA, HepaRG, electroporation, ~16 h
Strand notation (5' to 3'): a small letter for the sugar, then the base; units joined by * are phosphorothioate-linked, units joined directly phosphodiester-linked; [ ] holds rarer units or linkages, { } end groups; capitals alone tell only the bases. e = 2'-O-(2-methoxyethyl) (MOE); [5mC] = 5-methylcytosine; d = 2'-deoxy (DNA)
Don't forget the unit after the value.

- substance: "546827 (e[5mC]*eA*eG*eT*eA*dT*d[5mC]*dA*d[5mC]*dT*dG*dT*dA*d[5mC]*dT*eA*eG*eT*eT*eT; antisense) [compound 546827]"
  IC50: "300 nM"
- substance: "531231 (eT*eA*eT*e[5mC]*eA*d[5mC]*dT*dG*dT*dA*d[5mC]*dT*dA*dG*dT*eT*eT*e[5mC]*e[5mC]*eT) [compound 531231]"
  IC50: "500 nM"
- substance: "546846 (e[5mC]*eT*eG*eT*e[5mC]*d[5mC]*dT*dA*dT*dA*dT*d[5mC]*dA*d[5mC]*dT*eG*eT*e[5mC]*e[5mC]*eT; antisense) [compound 546846]"
  IC50: "500 nM"

Okay, now this substance:
IC50 in this record for 546825 (eG*eT*eA*eT*e[5mC]*dA*d[5mC]*dT*dG*dT*dA*d[5mC]*dT*dA*dG*eT*eT*eT*e[5mC]*e[5mC]; antisense) [compound 546825] : 200 nM

====

system: human PKK mRNA; test: Antisense inhibition of human PKK mRNA in HepaRG cells, 1,000 nM, MOE/deoxy/cEt oligonucleotides (Example 3); format: cell-based; details: HepaRG cells, electroporation with 1,000 nM antisense oligonucleotide, approx. 24 hours, PKK mRNA by RT-PCR (RTS3454), relative to untreated control cells; Table 26 experiment
Strand notation (5' to 3'): a small letter for the sugar, then the base; units joined by * are phosphorothioate-linked, units joined directly phosphodiester-linked; [ ] holds rarer units or linkages, { } end groups; capitals alone tell only the bases. e = 2'-O-(2-methoxyethyl) (MOE); k = constrained ethyl (cEt); [5mC] = 5-methylcytosine; d = 2'-deoxy (DNA)
Listing of entries alongside the reported % inhibition.
Answer with a number only, understood to be in %.

- substance: "548235 (eT*e[5mC]*kT*dA*dG*dA*dT*dG*dA*d[5mC]*d[5mC]*dT*dG*kA*kA*eG; antisense) [compound 548235]"
  experimental.system: "human PKK mRNA"
  % inhibition, %: 0
- substance: "548233 (eA*eT*kT*dG*dT*dA*dG*d[5mC]*d[5mC]*dA*dT*dA*d[5mC]*kA*kT*e[5mC]; antisense) [compound 548233]"
  experimental.system: "human PKK mRNA"
  % inhibition, %: 38

Okay, now this substance:
% inhibition in this record for 548237 (eG*eT*kA*dT*dA*d[5mC]*dA*dT*d[5mC]*dT*dA*dG*dA*kT*kG*eA; antisense) [compound 548237] : 22

====

test system: human PKK mRNA; assay: Antisense inhibition of human PKK mRNA in HepaRG cells, 1,000 nM, MOE/deoxy/cEt oligonucleotides (Example 3); type: cell-based; details: Table 20; HepaRG cells, electroporation with 1,000 nM antisense oligonucleotide, approximately 24 hours; PKK mRNA by RT-PCR (RTS3454), relative to untreated control cells
Strand notation (5' to 3'): a small letter for the sugar, then the base; units joined by * are phosphorothioate-linked, units joined directly phosphodiester-linked; [ ] holds rarer units or linkages, { } end groups; capitals alone tell only the bases. e = 2'-O-(2-methoxyethyl) (MOE); k = constrained ethyl (cEt); [5mC] = 5-methylcytosine; d = 2'-deoxy (DNA)
Would you mind labelling by % inhibition? At or over 20% is Met, under is Not met.

- substance: "547855 (antisense eT*eA*kT*d[5mC]*dA*dA*d[5mC]*dT*d[5mC]*d[5mC]*dT*dT*dT*kA*kT*eA) [compound 547855]"
  experimental.system: "human PKK mRNA"
  class.name: "Met"
- substance: "547889 (eT*eT*k[5mC]*d[5mC]*dG*dG*dT*dA*d[5mC]*dT*d[5mC]*dT*dG*k[5mC]*k[5mC]*eT; antisense) [compound 547889]"
  experimental.system: "human PKK mRNA"
  class.name: "Met"
- substance: "547845 (antisense e[5mC]*eG*kA*dT*dG*dG*d[5mC]*dA*dA*dG*d[5mC]*dA*d[5mC]*kT*kT*eA) [compound 547845]"
  experimental.system: "human PKK mRNA"
  class.name: "Not met"

Reported % inhibition at or above 20%? 547874 (antisense eA*e[5mC]*kT*dG*d[5mC]*dT*dA*dA*d[5mC]*d[5mC]*dT*dT*dA*kG*kA*e[5mC]) [compound 547874]
Met

Reported % inhibition at or above 20%? 547850 (antisense eA*eA*kA*dT*dG*dT*d[5mC]*dT*d[5mC]*dG*dA*dT*dG*kG*k[5mC]*eA) [compound 547850]
Met

Reported % inhibition at or above 20%? 547903 (e[5mC]*eT*k[5mC]*dA*dG*d[5mC]*dA*d[5mC]*d[5mC]*dT*dT*dT*dA*kT*kA*eG; antisense) [compound 547903]
Met

Reported % inhibition at or above 20%? 547846 (antisense eT*e[5mC]*kG*dA*dT*dG*dG*d[5mC]*dA*dA*dG*d[5mC]*dA*k[5mC]*kT*eT) [compound 547846]
Not met

Reported % inhibition at or above 20%? 547848 (antisense eA*eT*kG*dT*d[5mC]*dT*d[5mC]*dG*dA*dT*dG*dG*d[5mC]*kA*kA*eG) [compound 547848]
Met

====

Listing of entries alongside the reported % inhibition.
test system: human PKK mRNA; assay: Antisense inhibition of human PKK mRNA in HepaRG cells, 1,000 nM, MOE/deoxy/cEt oligonucleotides (Example 3); assay type: cell-based; settings: Table 30; human PKK mRNA, HepaRG cells, 1,000 nM antisense oligonucleotide
Strand notation (5' to 3'): a small letter for the sugar, then the base; units joined by * are phosphorothioate-linked, units joined directly phosphodiester-linked; [ ] holds rarer units or linkages, { } end groups; capitals alone tell only the bases. e = 2'-O-(2-methoxyethyl) (MOE); k = constrained ethyl (cEt); [5mC] = 5-methylcytosine; d = 2'-deoxy (DNA)
Answer with a number only, understood to be in %.

- substance: "548430 (antisense e[5mC]*e[5mC]*kT*dA*dT*dA*dA*d[5mC]*dT*dA*dT*dA*dA*k[5mC]*kA*eG) [compound 548430]"
  % inhibition [%]: 21
- substance: "548429 (antisense eT*eA*kT*dA*dA*d[5mC]*dT*dA*dT*dA*dA*d[5mC]*dA*kG*kT*eA) [compound 548429]"
  % inhibition [%]: 0
- substance: "548405 (e[5mC]*eG*kG*dA*d[5mC]*d[5mC]*dT*dT*d[5mC]*dA*dT*d[5mC]*dT*kT*k[5mC]*eA; antisense) [compound 548405]"
  % inhibition [%]: 35

% inhibition in this record for 548407 (e[5mC]*e[5mC]*kT*dA*dT*dA*dA*d[5mC]*dT*dG*d[5mC]*dT*dG*k[5mC]*kT*e[5mC]; antisense) [compound 548407] : 24

% inhibition in this record for 548450 (e[5mC]*eT*kA*d[5mC]*d[5mC]*dT*dA*dT*dA*dA*d[5mC]*dT*d[5mC]*kT*kA*eA; antisense) [compound 548450] : 0

% inhibition in this record for 548448 (eT*e[5mC]*kA*d[5mC]*dT*dG*dT*d[5mC]*d[5mC]*dT*dA*dT*dG*kT*k[5mC]*eA; antisense) [compound 548448] : 61

% inhibition in this record for 548445 (antisense e[5mC]*e[5mC]*kT*dA*dT*dG*dT*d[5mC]*dA*d[5mC]*dT*dG*dT*kA*k[5mC]*e[5mC]) [compound 548445] : 62

% inhibition in this record for 548434 (antisense eA*e[5mC]*kA*dA*dT*dA*dT*d[5mC]*dA*d[5mC]*dT*dG*dT*kA*k[5mC]*e[5mC]) [compound 548434] : 63

% inhibition in this record for 548446 (antisense eT*e[5mC]*k[5mC]*dT*dA*dT*dG*dT*d[5mC]*dA*d[5mC]*dT*dG*kT*kA*e[5mC]) [compound 548446] : 16

% inhibition in this record for 548415 (antisense eA*eT*kA*dA*d[5mC]*dT*d[5mC]*dT*dA*dA*d[5mC]*dA*dG*kT*kA*eT) [compound 548415] : 0

% inhibition in this record for 548423 (antisense eA*eG*kT*dA*dT*d[5mC]*dA*d[5mC]*dT*dG*dT*d[5mC]*d[5mC]*kT*kA*eT) [compound 548423] : 72
